B1: EHMT1 (parent)
chain: FHKDCASRVNNASYCPHCGEESSK

Variants of: B1
Assay: protein stability index of a GFP-peptide fusion (GPS, HEK-293T) (PSI 1-6); higher = more stable;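 also: lentivirally expressed fusions sorted by FACS into six bins by GFP to DsRed ratio, PSI derived from sequencing read proportions per bin multiplied by bin number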
Settings: c terminus: a fixed tail appended
# label = y if protein stability index >= 3 else n

sequenceInput: FHCDCASRVNNASYCPHCGEESSK
labelValue: y
//
sequenceInput: FHKDCASRVNNASYCPHCGEPSSK
labelValue: n
//
sequenceInput: FHKDCASRVNEASYCPHCGEESSK
labelValue: y
//
sequenceInput: FHKDCASRVNNFSYCPHCGEESSK
labelValue: n
//
sequenceInput: FHKDCASRVNNASHCPHCGEESSK
labelValue: y
//
sequenceInput: FDKDCASRVNNASYCPHCGEESSK
labelValue: y
//
sequenceInput: FHKDCASRVNNASYMPHCGEESSK
labelValue: y
//
sequenceInput: FHKDCASRVNNASICPHCGEESSK
labelValue: y
//
sequenceInput: FHKDCASRVNNASYCPHWGEESSK
labelValue: n
//
sequenceInput: FHKDCASFVNNASYCPHCGEESSK
labelValue: n
//
sequenceInput: FHKDCASRVNNASYCPHCKEESSK
labelValue: y
//
sequenceInput: FHKDCAYRVNNASYCPHCGEESSK
labelValue: n
//
sequenceInput: FHKDCASRVNNASYDPHCGEESSK
labelValue: y
//
sequenceInput: FHKDCASRVNNASYCPHCTEESSK
labelValue: y
//
sequenceInput: FHKDCASRVNCASYCPHCGEESSK
labelValue: y
//
sequenceInput: FMKDCASRVNNASYCPHCGEESSK
labelValue: y
//
sequenceInput: FHKDCASRVNNASYCPHCCEESSK
labelValue: y
//
sequenceInput: FHKDCASRVNNASYCPHCGRESSK
labelValue: y
//
sequenceInput: FHKDCASRVNNQSYCPHCGEESSK
labelValue: y
//
sequenceInput: FHKDCASRVNNASYCPHCGEESGK
labelValue: y
//
sequenceInput: FHKDCASRVPNASYCPHCGEESSK
labelValue: y
//
sequenceInput: FHKDCASRVNWASYCPHCGEESSK
labelValue: n
